# System: HBV infected PHH cells
# Experiment: Suppression of HBV virus in PHH cells using conditioned media from STING activated primary human PBMC
# Type: cell-based, hepatitis B virus
# Measurement Setup: conditioned media from PBMCs stimulated at 20, 4, 0.8 μM for 48 h, 1:1 on HBV infected PHH cells; HBsAg 8 days later; two donors; read-out: EC50 (HBsAg production)
pEC50: −log10 of the molar value.
Readout Name: pEC50

| Compound | Measured On | Endpoint Result |
| --- | --- | --- |
| B[P@]1(=O)OCC2OC(n3cnc4c(=O)[nH]c(N)nc43)C(O[P@@](B)(=O)OCC3OC(n4cnc5c(N)ncnc54)C(O)C3O1)C2O (single isomer, unassigned) [Compound 7] | HBV infected PHH cells | 10.07 |

* * *

# Measured On: STING (Homo sapiens, UniProt Q86WV6, H232R)
# Sequence (Q86WV6 139-379 H232R): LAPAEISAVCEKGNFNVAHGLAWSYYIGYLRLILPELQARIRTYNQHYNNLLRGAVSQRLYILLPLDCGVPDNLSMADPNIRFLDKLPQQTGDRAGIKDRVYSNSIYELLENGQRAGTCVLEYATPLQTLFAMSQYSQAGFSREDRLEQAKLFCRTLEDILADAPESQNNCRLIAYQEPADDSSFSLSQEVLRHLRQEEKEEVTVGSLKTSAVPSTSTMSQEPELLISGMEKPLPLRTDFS
# Experiment: STING SPA binding assay
# Measurement Setup: displacement of [3H]-2′3′-cGAMP; mean of at least three values; read-out: hSTING SPA IC50
pIC50: −log10 of the molar value.
The compounds listed here are annotated with their pIC50.
Readout Name: pIC50

| Compound | Endpoint Result |
| --- | --- |
| B[P@@]1(=O)OCC2OC(n3cnc4c(=O)[nH]c(N)nc43)C(O[P@](B)(=O)OCC3OC(n4cnc5c(N)ncnc54)C(F)C3O1)C2OC (single isomer, unassigned) [Compound 11] | > 8.00 |
| B[P@]1(=O)OCC2OC(n3cnc4c(=O)[nH]c(N)nc43)C(O[P@@](B)(=O)OCC3OC(n4cnc5c(N)ncnc54)C(F)C3O1)C2OC (single isomer, unassigned) [Compound 12] | > 8.00 |
